All figures here come from ChEMBL document CHEMBL1126459.

System: Mus musculus
Test: Dopamine antagonist activity expressed as inhibition of apomorphine-induced climbing in mice, subcutaneous administration
Format: functional
Criterion: ED50 strictly under 4 mg/kg. Met: Criterion met. Not met: Criterion not met.

See these solved cases before continuing.
compound="COc1cc(N)c(Cl)cc1C(=O)NC1CC(C)N2CCCC2C1 (stereo in doubt; 28)" qualitative_label="Criterion not met"
compound="COc1cc(N)c(Cl)cc1C(=O)NC1CCN2CCCCC12 (stereo in doubt)" qualitative_label="Criterion met"
compound="COc1cc(N)c(Cl)cc1C(=O)NC1CCCN2CCCC12 (stereo in doubt; 10 (Eq))" qualitative_label="Criterion met"
compound="COc1cc(N)c(Cl)cc1C(=O)NC1CC2CCCCN2C1 (single isomer, unassigned; form 1)" qualitative_label="Criterion not met"
compound="COc1cc(N)c(Cl)cc1C(=O)NC1CCN2CCCCC12 (single isomer, unassigned)" qualitative_label="Criterion met"
compound="COc1cc(N)c(Cl)cc1C(=O)NC1CC(C)N2CCCC2C1 (stereo in doubt; 27)" qualitative_label="Criterion not met"

query: Record COc1cc(N)c(Cl)cc1C(=O)NC1CCCN2CCCCC2C1 (single isomer, unassigned; form 2) : is its ED50 strictly below 4 mg/kg?
result: Criterion not met

query: Record COc1cc(N)c(Cl)cc1C(=O)NC1CCN2CCCC2C1 (stereo in doubt; 9 (Ax)) : is its ED50 strictly below 4 mg/kg?
result: Criterion not met
